Tested on: 435261-313-R-J1-PDC tumor spheroid viability;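 also: spheroids exposed to compounds for 7 days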
measurementNotes: Anticancer human tumor 435261-313-R-J1-PDC patient-derived colon adenocarcinoma cell line growth inhibition [PI3K]
condition: second compound 0.1 µM; first compound 0.316 µM; hits give low values; spheroids with HUVEC and MSC
Assign labels as follows, please: yes (1) for viability, T/C below 90%; no (0) for viability, T/C equal to or exceeding 90%.

C[C@@H](NC(=O)c1ncnc(N)c1Cl)c1ncc(C(=O)Nc2cc(C(F)(F)F)c(Cl)cn2)s1 + CC(Nc1ccc2c(c1)OCCn1cc(N3C(=O)OCC3C(F)F)nc1-2)C(N)=O ... no (0)
CNC(=O)c1ccc(N2C(=S)N(c3ccc(C#N)c(C(F)(F)F)c3)C(=O)C2(C)C)cc1F + CC(Nc1ccc2c(c1)OCCn1cc(N3C(=O)OCC3C(F)F)nc1-2)C(N)=O ... yes (1)
CC1(C)CCC(CN2CCN(c3ccc(C(=O)NS(=O)(=O)c4ccc(NCC5CCOCC5)c([N+](=O)[O-])c4)c(Oc4cnc5[nH]ccc5c4)c3)CC2)=C(c2ccc(Cl)cc2)C1 + CC(Nc1ccc2c(c1)OCCn1cc(N3C(=O)OCC3C(F)F)nc1-2)C(N)=O ... yes (1)
Cn1ncc(Cl)c1-c1cc(C(=O)NC(CN)Cc2cccc(F)c2)sc1Cl (stereo not given) + CC(Nc1ccc2c(c1)OCCn1cc(N3C(=O)OCC3C(F)F)nc1-2)C(N)=O ... yes (1)
